system: KB; experiment: Cytotoxicity against human KB cells after 72 hrs by MTT assay; assay type: functional, cell-based
Threshold 5 µM. IC50 below it: true (1). IC50 at it or above: false (0).

Consider the following illustrative entries.
INSERT INTO results (smilesstr, group) VALUES
  ('C=CCN(C)CCCCCCOc1ccc2c(-c3ccc(Br)cc3)nsc2c1.O=C(O)/C=C/C(=O)O', 'false (0)'),
  ('CCN(CCO)CCCCOc1ccc2c(-c3ccc(Br)cc3)nsc2c1.Cl', 'true (1)'),
  ('CCN(CCO)C[C@H]1CC[C@H](CCN(C)C(=O)Oc2ccc(C(F)(F)F)cc2)CC1.O=C(O)CC(O)(CC(=O)O)C(=O)O', 'false (0)'),
  ('CN(CCO)CCCCC[C@H]1CC[C@H](N(C)S(=O)(=O)c2ccc(C(F)(F)F)cc2)CC1.O=C(O)/C=C/C(=O)O', 'true (1)');

Is it true that IC50 reported for CC(C)c1c(C(=O)Nc2ccccc2)c(-c2ccccc2)c(-c2ccc(F)cc2)n1CC[C@@H](O)C[C@@H](O)CC(=O)O is less than 5 µM? true (1)

Is it true that IC50 reported for C=CCN(C)CCCCCCOc1ccc(C(=O)c2ccc(Br)cc2)c(F)c1.O=C(O)/C=C/C(=O)O is less than 5 µM? true (1)

Is it true that IC50 reported for C=CCN(C)Cc1ccc(-c2ccc(C(=O)c3ccc(Br)cc3)cc2)cc1.Cl is less than 5 µM? true (1)

---

system: MCF7; assay: cells; conditions: Homo sapiens, MCF7, 72 h
Description: Cytotoxicity against human MCF7 cells after 72 hrs by MTT assay
Consider the following molecules and their measured IC50 readings.
Hi! Could you send only the number? It should be in µM, unit omitted.

INSERT INTO assay_data (smilesstr, quantitymeasured, recordedresult) VALUES
  ('C=CCN(C)CCCCCCOc1ccc(C(=O)c2ccc(Br)cc2)c(F)c1.O=C(O)/C=C/C(=O)O', 'IC50', 6.77);

Looking for the measured IC50 of CN(CCO)CCCCC[C@H]1CC[C@H](N(C)S(=O)(=O)c2ccc(C(F)(F)F)cc2)CC1.O=C(O)/C=C/C(=O)O , can you help? 12.3

Looking for the measured IC50 of C=CCN(C)CCCCC[C@H]1CC[C@H](N(C)C(=O)Oc2ccc(C(F)(F)F)cc2)CC1.O=C(O)CC(O)(CC(=O)O)C(=O)O , can you help? 20.7

Looking for the measured IC50 of C=CCN(C)Cc1ccc(-c2ccc(C(=O)c3ccc(Br)cc3)cc2)cc1.Cl , can you help? 25.7

---

Biological target: Lanosterol synthase (Homo sapiens, UniProt P48449)
Sequence (P48449 whole entry): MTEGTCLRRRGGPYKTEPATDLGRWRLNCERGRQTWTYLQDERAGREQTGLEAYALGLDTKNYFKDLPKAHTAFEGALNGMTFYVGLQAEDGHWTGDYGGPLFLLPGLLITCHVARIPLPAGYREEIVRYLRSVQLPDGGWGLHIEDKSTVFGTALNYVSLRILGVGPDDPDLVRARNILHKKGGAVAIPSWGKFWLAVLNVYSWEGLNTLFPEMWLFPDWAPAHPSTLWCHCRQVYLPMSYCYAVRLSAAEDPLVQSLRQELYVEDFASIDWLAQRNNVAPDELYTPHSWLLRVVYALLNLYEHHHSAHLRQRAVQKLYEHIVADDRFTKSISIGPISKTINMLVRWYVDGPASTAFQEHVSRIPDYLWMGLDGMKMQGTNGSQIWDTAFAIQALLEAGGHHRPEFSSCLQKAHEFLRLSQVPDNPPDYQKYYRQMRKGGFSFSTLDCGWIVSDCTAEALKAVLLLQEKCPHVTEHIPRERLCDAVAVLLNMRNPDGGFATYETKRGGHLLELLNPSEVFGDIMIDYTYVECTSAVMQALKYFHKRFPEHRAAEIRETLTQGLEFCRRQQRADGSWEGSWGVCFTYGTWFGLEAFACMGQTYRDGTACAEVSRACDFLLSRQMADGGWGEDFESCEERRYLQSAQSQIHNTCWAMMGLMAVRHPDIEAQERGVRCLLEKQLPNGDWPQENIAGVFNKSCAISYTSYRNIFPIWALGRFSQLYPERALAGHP
Consider the following compounds and their measured pIC50 readings.
Remember, pIC50 is on a log scale: it is -log10 of the molar concentration.

INSERT INTO measurements (smilesstr, quantitymeasured, recordedresult) VALUES
  ('CN(CCO)CCCCC[C@H]1CC[C@H](N(C)S(=O)(=O)c2ccc(C(F)(F)F)cc2)CC1.O=C(O)/C=C/C(=O)O', 'pIC50', 7.95),
  ('CCCN(C)CCCC#C[C@H]1CC[C@H](N(C)C(=O)Oc2ccc(Cl)cc2)CC1.O=C(O)/C=C/C(=O)O', 'pIC50', 8.11),
  ('CCN(CCO)CCCCOc1ccc2c(-c3ccc(Br)cc3)nsc2c1.Cl', 'pIC50', 7.75);

Looking for the measured pIC50 of C=CCN(C)CCCCC[C@H]1CC[C@H](N(C)C(=O)Oc2ccc(C(F)(F)F)cc2)CC1.O=C(O)CC(O)(CC(=O)O)C(=O)O , can you help? 8.30

---

As a worked illustration, we turn to IC50 data collected for Lanosterol synthase (Homo sapiens).
Hi! Could you send only the number? It should be in µM, unit omitted.

INSERT INTO assay_data (smilesstr, recordedresult) VALUES
  ('CCN(CCO)CCCC#C[C@H]1CC[C@H](N(C)C(=O)Oc2ccc(Cl)cc2)CC1.Cl', 0.01);

Test system Lanosterol synthase (Homo sapiens); read-out IC50; what value for CN(CC[C@H]1CC[C@H](C(=O)N2CCC(O)CC2)CC1)C(=O)Oc1ccc(Cl)cc1 ? 0.0287

Test system Lanosterol synthase (Homo sapiens); read-out IC50; what value for CCN(CCO)C[C@H]1CC[C@H](CCN(C)C(=O)Oc2ccc(C(F)(F)F)cc2)CC1.O=C(O)CC(O)(CC(=O)O)C(=O)O ? 0.0127

---

conditions: pampa, pH 6.5
Description: Permeability of compound at pH 6.5 assessed as compound binding to lipid membrane by PAMPA
Returns YES if the recorded permeability is greater than or equal to 20%, and NO otherwise.

INSERT INTO assay_data (smilesstr, group) VALUES
  ('C=CCN(C)Cc1ccc(-c2ccc(C(=O)c3ccc(Br)cc3)cc2)cc1.Cl', 'YES');

Determine whether measured permeability meets or exceeds 20% for CN(CC[C@H]1CC[C@H](C(=O)N2CCC(O)CC2)CC1)C(=O)Oc1ccc(Cl)cc1 NO

Determine whether measured permeability meets or exceeds 20% for CN(CCO)CCCCC[C@H]1CC[C@H](N(C)S(=O)(=O)c2ccc(C(F)(F)F)cc2)CC1.O=C(O)/C=C/C(=O)O YES

Determine whether measured permeability meets or exceeds 20% for CCN(CCO)C[C@H]1CC[C@H](CCN(C)C(=O)Oc2ccc(C(F)(F)F)cc2)CC1.O=C(O)CC(O)(CC(=O)O)C(=O)O NO

Determine whether measured permeability meets or exceeds 20% for C=CCN(C)CCCCCCOc1ccc2c(-c3ccc(Br)cc3)nsc2c1.O=C(O)/C=C/C(=O)O YES

---

experiment: Cytotoxicity against human LN18 cells assessed as reduction in cell survival after 72 hrs by MTT assay; type: functional, cell-based; conditions: LN-18, 72 h
Label scheme for IC50: class 1 = under 3 µM, class 2 = from 3 µM up to 10 µM, class 3 = 10 µM and over

Consider the following illustrative entries.
INSERT INTO assay_data (compound, group) VALUES
  ('CCN(CCO)C[C@H]1CC[C@H](CCN(C)C(=O)Oc2ccc(C(F)(F)F)cc2)CC1.O=C(O)CC(O)(CC(=O)O)C(=O)O', 'class 3'),
  ('CC(C)c1c(C(=O)Nc2ccccc2)c(-c2ccccc2)c(-c2ccc(F)cc2)n1CC[C@@H](O)C[C@@H](O)CC(=O)O [ATORVASTATIN CALCIUM]', 'class 2'),
  ('CN(CCO)CCCCC[C@H]1CC[C@H](N(C)S(=O)(=O)c2ccc(C(F)(F)F)cc2)CC1.O=C(O)/C=C/C(=O)O', 'class 3'),
  ('CCN(CCO)CCCCOc1ccc2c(-c3ccc(Br)cc3)nsc2c1.Cl', 'class 1'),
  ('CN(CC[C@H]1CC[C@H](C(=O)N2CCC(O)CC2)CC1)C(=O)Oc1ccc(Cl)cc1', 'class 3');

Place this compound in its band: C=CCN(C)CCCCCCOc1ccc2c(-c3ccc(Br)cc3)nsc2c1.O=C(O)/C=C/C(=O)O class 2

Place this compound in its band: C=CCN(C)CCCCCCOc1ccc(C(=O)c2ccc(Br)cc2)c(F)c1.O=C(O)/C=C/C(=O)O class 2

---

tested on: LNCaP; assay: Cytotoxicity against human LNCAP cells after 72 hrs by MTT assay; assay type: functional, cell-based
pIC50: −log10 of the molar value.
Returns 1 (yes) if the recorded pIC50 is greater than or equal to 5, and 0 (no) otherwise.

Consider the following illustrative entries.
INSERT INTO results (smilesstr, targetortestsystem, group) VALUES
  ('CC(C)c1c(C(=O)Nc2ccccc2)c(-c2ccccc2)c(-c2ccc(F)cc2)n1CC[C@@H](O)C[C@@H](O)CC(=O)O', 'LNCaP', '0 (no)'),
  ('CCN(CCO)CCCC#C[C@H]1CC[C@H](N(C)C(=O)Oc2ccc(Cl)cc2)CC1.Cl', 'LNCaP', '0 (no)'),
  ('CCCN(C)CCCC#C[C@H]1CC[C@H](N(C)C(=O)Oc2ccc(Cl)cc2)CC1.O=C(O)/C=C/C(=O)O', 'LNCaP', '0 (no)'),
  ('CN(CC[C@H]1CC[C@H](C(=O)N2CCC(O)CC2)CC1)C(=O)Oc1ccc(Cl)cc1', 'LNCaP', '1 (yes)'),
  ('C=CCN(C)CCCCCCOc1ccc(C(=O)c2ccc(Br)cc2)c(F)c1.O=C(O)/C=C/C(=O)O', 'LNCaP', '0 (no)'),
  ('CCN(CCO)C[C@H]1CC[C@H](CCN(C)C(=O)Oc2ccc(C(F)(F)F)cc2)CC1.O=C(O)CC(O)(CC(=O)O)C(=O)O', 'LNCaP', '0 (no)'),
  ('C=CCN(C)CCCCCCOc1ccc2c(-c3ccc(Br)cc3)nsc2c1.O=C(O)/C=C/C(=O)O', 'LNCaP', '0 (no)'),
  ('C=CCN(C)CCCCC[C@H]1CC[C@H](N(C)C(=O)Oc2ccc(C(F)(F)F)cc2)CC1.O=C(O)CC(O)(CC(=O)O)C(=O)O', 'LNCaP', '1 (yes)'),
  ('CN(CCO)CCCCC[C@H]1CC[C@H](N(C)S(=O)(=O)c2ccc(C(F)(F)F)cc2)CC1.O=C(O)/C=C/C(=O)O', 'LNCaP', '0 (no)'),
  ('C=CCN(C)Cc1ccc(-c2ccc(C(=O)c3ccc(Br)cc3)cc2)cc1.Cl', 'LNCaP', '1 (yes)');

Let us examine a further case.
Determine whether measured pIC50 meets or exceeds 5 for CCN(CCO)CCCCOc1ccc2c(-c3ccc(Br)cc3)nsc2c1.Cl 0 (no)

Source: ChEMBL document CHEMBL2163299
